TEST PROTOCOL: Solubility C (saturated concentration at 5° C.) of compound in low-polarity solvent and product εC
Format: physicochemical
EXPERIMENTAL CONDITIONS: organic solvent or mixture, thermodynamic from solid; in n-decane, at 5° C.
Known solubility at 24 h of a selection of compounds
Enter your answer as a number in mM; do not include the unit.

In the examples that follow, each entry is paired with its recorded solubility at 24 h.
COMPOUND	solubility at 24 h, mM
CCCCCc1ccc(N=Nc2cc(C#N)c(/N=N/c3cc(OC)c(N(CC(CC)CCCC)CC(CC)CCCC)cc3NC(C)=O)s2)cc1 (stereo not shown)	220
CCCCC(CC)CNc1ccc(NCC(CC)CCCC)c2c1C(=O)c1ccccc1C2=O (stereo not shown) [Comparative example compound 1, reference compound]	27
CCCCc1ccc(N=Nc2cc(C#N)c(/N=N/c3ccc(N(CC(CC)CCCC)CC(CC)CCCC)cc3C)s2)cc1 (stereo not shown)	27

Record CCCCC(CC)CN(CC(CC)CCCC)c1ccc(/N=N/c2sc(N=Nc3ccc(C(=O)OCC(C)C)cc3)cc2C#N)c(C(C)C)c1 (stereo not shown) . Reported solubility at 24 h: 27

Lab book: solubility at 24 h of CCCCc1ccc(N=Nc2cc(C#N)c(/N=N/c3ccc(N(CC(CC)CCCC)CC(CC)CCCC)cc3NC(C)=O)s2)cc1 (stereo not shown) noted as 24

# solubility at 24 h of CCCCC(CC)CN(CC(CC)CCCC)c1cc(NC(C)=O)c(/N=N/c2nc(Cl)c(C=O)s2)cc1OC (stereo not shown) = 58
